Reported pKd is given for each of the following binders.
# targetOfAssay: T1, biotinylated beta-catenin (UniProt P35222 134-665, limits assumed, biotinylated (site not stated))
# T1 construct: also called beta-catenin (SPR); armadillo domain of β-catenin
# T1 sequence (looked up): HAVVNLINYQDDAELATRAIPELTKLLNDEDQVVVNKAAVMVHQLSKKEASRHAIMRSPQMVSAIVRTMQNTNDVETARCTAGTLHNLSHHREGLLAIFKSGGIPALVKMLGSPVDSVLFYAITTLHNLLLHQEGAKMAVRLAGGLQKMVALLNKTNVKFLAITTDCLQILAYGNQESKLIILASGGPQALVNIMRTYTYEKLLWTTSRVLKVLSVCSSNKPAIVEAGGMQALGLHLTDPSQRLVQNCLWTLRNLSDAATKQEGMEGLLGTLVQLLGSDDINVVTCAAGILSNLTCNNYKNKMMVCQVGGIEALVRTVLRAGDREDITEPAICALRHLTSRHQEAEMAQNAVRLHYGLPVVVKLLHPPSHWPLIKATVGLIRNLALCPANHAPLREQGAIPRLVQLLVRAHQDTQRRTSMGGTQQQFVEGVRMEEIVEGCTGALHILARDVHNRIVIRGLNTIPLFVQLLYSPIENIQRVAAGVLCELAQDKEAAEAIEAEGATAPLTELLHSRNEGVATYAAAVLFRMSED
# assayRemarks: SPR (Biacore, biotinylated beta-catenin)
Bridge positions count the residues as written; N and C are the ends. Square brackets hold non-standard residues; d marks the D form. MB = Monomer B = PyrS, Alloc-pyrrolidine stapling residue (allyl carbamate on pyrrolidine N); R8 = C=CCCCCCC[C@@](C)(N)C(=O)O; βAla = NCCC(=O)O
To interpret pKd, take it as minus log10 of a concentration measured in moles per litre.

Reported pKd, binder AXILDAHIXRVW (not fully specified; Ac-A-R4-I-L-D-A-H-I-MH-R-V-W-NH2; carbamate staple R4/MH) [FP0509c] : ____ 8.52

Reported pKd, binder H-[βAla]A[R8]ILDAHI[MB]RVW-NH2 (staple 3-10) [FP0217c_bAfree] : ____ 8.05

Reported pKd, binder AXILDAHIXRVW (not fully specified; Ac-A-MG-I-L-D-A-H-I-MB-R-V-W-NH2; carbamate staple MG/MB) [FP0597c] : ____ 8.40

Reported pKd, binder Ac-A[R8]ILDAHI[MB]RVW-NH2 (staple 2-9; also: Isomer 2, staple olefin E/Z not assigned, also called FPO217c isomer 2; FP00217c Isomer 2) [FP0217c Isomer 2] : ____ 8.70
